Test system: Human cervical carcinoma cells Hela
Test: Telomere DNA damage in Hela cells under X-ray irradiation, detected by FISH
Type: cell-based
Conditions: peptide 4 h, 5-Gy X ray for 1 h
Non-standard residues stand in square brackets, D forms with d. No end group written: not given here.
measured.parameter: telomere DNA damage caused by irradiation of X rays

Query the reported telomere DNA damage caused by irradiation of X rays for Human cervical carcinoma cells Hela; item: KTEETGNRSGRRRQRRKKRGY [DKY21]
inhibitory effect

Another substance to check: TyrGlyArgLysLysArgArgGluArgArgArgGlySerArgAsnGlyThrGluGluThrLys [DYK21] ([dY]G[dR][dK][dK][dR][dR][dE][dR][dR][dR]G[dS][dR][dN]G[dT][dE][dE][dT][dK])
inhibitory effect
